Biological target: T1, APBA1_1, Q02410
T1 sequence (Q02410 651-752, limits assumed, looked up): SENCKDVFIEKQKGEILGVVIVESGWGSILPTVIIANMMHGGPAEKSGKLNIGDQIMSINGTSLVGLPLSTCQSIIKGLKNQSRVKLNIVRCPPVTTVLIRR
Experiment: holdup assay
Design: key: below the threshold = too weak to quantify, mostly under pKd 3.1 to 4
Settings: plain residues with an end cap or a label only (N-terminal biotin on a linker: ado-ado)
measure: pKd

Worked set:
binder	pKd
NHSSSPETTA [TRMT13, Q9NUP7]	below the threshold
SKSNFGSEPL [KIF17, Q9P2E2]	below the threshold
TKGPRGPTRV [SAPCD1, Q5SSQ6]	below the threshold
SGSLKLMTTV [DACT1, Q9NYF0]	below the threshold
QKNRKAQEDL [CES3, Q6UWW8]	below the threshold

Requested field: pKd. Item: TLPRKRMSSI [GPRC6A, Q5T6X5]
below the threshold

Query: pKd; subject: DTTVPESEDL [MYOZ2, Q9NPC6]
below the threshold

Need pKd of QPCFNKLFPL [LPXN, O60711] , thanks.
below the threshold
